Target entity: T1, full-length human PCNA (recombinant, for peptide binding and crystallography) (human, UniProt P12004 1-261)
T1 construct: PCNA, human, full length; also called recombinant PCNA; source: E. coli Bl21 (DE3), purified as described (Hibbert & Sixma, 2012)
T1 sequence (P12004 whole entry): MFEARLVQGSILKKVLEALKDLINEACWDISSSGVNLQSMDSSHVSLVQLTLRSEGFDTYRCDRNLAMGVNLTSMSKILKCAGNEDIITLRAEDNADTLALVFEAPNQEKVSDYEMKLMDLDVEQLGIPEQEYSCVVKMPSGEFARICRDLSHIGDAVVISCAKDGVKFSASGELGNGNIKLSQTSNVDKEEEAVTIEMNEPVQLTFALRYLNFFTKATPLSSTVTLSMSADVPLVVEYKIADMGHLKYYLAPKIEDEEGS
Test: fluorescence polarisation; 1 nM labelled peptide mixed with PCNA at 0 to 2 μM; 10 mM Hepes pH 7.5, 125 mM NaCl, 0.5 mM TCEP; non-binding 96-well plates; triplicates
Experimental context: both partners purified
Where no end group is shown, it is not given here. TAMRA = carboxytetramethylrhodamine
Quantity: Kd (nM)
Give bare numbers, in nM.

{TAMRA}-SSMRKICTYFHRKS (human Cdt2 PIP box, residues 704-717; also called Cdt2 PIP box peptide; source: synthetic peptide (in-house Fmoc synthesis)) [Cdt2^PIP-TAMRA (704–717)]
57

// for each binder in input: emit Kd
1. RRQTSMTDFYHSKR (p21 PIP box peptide) [p21 PIP box peptide]
2. MEQRRVTDFFARRR (also: TAMRA label, position not given here, Cdt1 N-terminal PIP box peptide, residues 1-14; also called Cdt1 PIP box peptide; source: synthetic peptide (in-house Fmoc synthesis)) [Cdt1^PIP-TAMRA (1–14)]

Response:
36
7200
